tested on: OVCAR-3 ovarian; assay: NCI tumour cell line growth inhibition, 48 h
outcome_measure: log10 of TGI (log10 of the value in µM)
Base-10 log of TGI, unit µM.

Worked examples, 2 compounds total:
1. CCN(CC)CCSc1c2cc(OC)ccc2nc2ccc(OC)cc12 :: 0.91
2. O=C1c2cccnc2-c2nc(-c3ccc(Cl)cc3)cc3c2c1nc1ccccc13 :: 1.88

Record log10 of TGI for all entries; do not skip any.
1. Cc1cc(NC(=S)SCc2ccc(F)cc2)c([N+](=O)[O-])cc1C
2. CC(=O)O[C@H]1C(=O)[C@@]2(C)C(C(OC(=O)c3ccccc3)[C@]3(O)CC(OC(=O)C(O)C(NC(=O)c4ccc(C(F)(F)F)cc4)c4ccccc4)C(C)=C1C3(C)C)[C@]1(OC(C)=O)CO[C@@H]1C[C@@H]2O (some centres not stated)
3. Cc1sc2nc(-c3cccc([N+](=O)[O-])c3)c(/C=N/N=C(N)N)n2c1C

// result
1.74
-0.71
0.60
